Experiment: Pharmacokinetic study in mice
Assay type: in vivo, mouse
Details: mouse, iv; Plasma, 2 mg/kg; back extrapolated conc.
quantity: C0 (ng/mL)

1. CNc1nc(Nc2ccc(C(=O)N3CCOCC3)cc2OC)nc2[nH]cc(Cl)c12 1600

---

Test: Pharmacokinetic study in mice
Format: in vivo, mouse
Details: mouse, po; Brain, 10 mg/kg
quantity: Tmax (h)

1) CNc1nc(Nc2ccc(C(=O)N3CCOCC3)cc2OC)nc2[nH]cc(Cl)c12 1

---

Experiment: Pharmacokinetic study in mice
Type: in vivo, mouse
Conditions: mouse, iv; Brain, 2 mg/kg
quantity: half-life

molecule	endpoint_value
CNc1nc(Nc2ccc(C(=O)N3CCOCC3)cc2OC)nc2[nH]cc(Cl)c12 [Compound 18]	13.8 min
